# CC50 at 72 h per record follows
Test: Cytotoxicity (CC50) determination, crystal violet assay
Assay type: cell-based
Conditions: African green monkey, Vero E6 cells, Table 4 prints no unit, Figure 4 prints μM, read-out: CC50 (half-maximal cytotoxic concentration)

- MOLECULE: "Cc1cccc(-n2cc(COC(=O)C34CCC(C)(C)CC3C3=CCC5C6(C)CCC(O)C(C)(C)C6CCC5(C)C3(C)CC4)nn2)c1 (centres unmarked)"
  CC50 at 72 h [µM]: 277
- MOLECULE: "CC1(C)CCC2(C(=O)OCc3cc(-c4ccc(Cl)cc4)no3)CCC3(C)C(=CCC4C5(C)CC(O)C(O)C(C)(C)C5CCC43C)C2C1 (centres unmarked)"
  CC50 at 72 h [µM]: 142
- MOLECULE: "COc1ccc(-n2cc(COC(=O)[C@]34CCC(C)(C)CC3C3=CCC5[C@@]6(C)C[C@@H](O)[C@H](OCc7cn(-c8ccc(OC)cc8)nn7)C(C)(C)C6CC[C@@]5(C)[C@]3(C)CC4)nn2)cc1 (some centres unmarked)"
  CC50 at 72 h [µM]: 356
- MOLECULE: "CC1(C)CC[C@]2(C(=O)O)CC[C@]3(C)C(=CC[C@@H]4[C@@]5(C)C[C@@H](O)[C@H](O)C(C)(C)[C@@H]5CC[C@]43C)[C@@H]2C1"
  CC50 at 72 h [µM]: 97.3
- MOLECULE: "Cc1cccc(-n2nncc2COC(=O)C23CCC(C)(C)CC2C2=CCC4C5(C)CCC(O)C(C)(C)C5CCC4(C)C2(C)CC3)c1 (centres unmarked)"
  CC50 at 72 h [µM]: 170
- MOLECULE: "C#CCOC(=O)[C@]12CCC(C)(C)CC1C1=CCC3[C@@]4(C)CC[C@H](O)C(C)(C)C4CC[C@@]3(C)[C@]1(C)CC2 (some centres unmarked)"
  CC50 at 72 h [µM]: 97.4
- MOLECULE: "COc1ccc(-n2cc(COC(=O)[C@]34CCC(C)(C)CC3C3=CCC5[C@@]6(C)C[C@@H](OCc7cn(-c8ccc(OC)cc8)nn7)[C@H](OCc7cn(-c8ccc(OC)cc8)nn7)C(C)(C)C6CC[C@@]5(C)[C@]3(C)CC4)nn2)cc1 (some centres unmarked)"
  CC50 at 72 h [µM]: 405
- MOLECULE: "C#CCOC(=O)[C@]12CCC(C)(C)CC1C1=CCC3[C@@]4(C)C[C@@H](O)[C@H](O)C(C)(C)C4CC[C@@]3(C)[C@]1(C)CC2 (some centres unmarked)"
  CC50 at 72 h [µM]: 157
- MOLECULE: "C#CCOC(=O)C12CCC(C)(C)CC1C1=CCC3C4(C)CC(OCC#C)C(O)C(C)(C)C4CCC3(C)C1(C)CC2 (centres unmarked)"
  CC50 at 72 h [µM]: 90.6
- MOLECULE: "C#CCOC(=O)C12CCC(C)(C)CC1C1=CCC3C4(C)CC(O)C(OCC#C)C(C)(C)C4CCC3(C)C1(C)CC2 (centres unmarked)"
  CC50 at 72 h [µM]: 209
- MOLECULE: "CC1(C)CC[C@]2(C(=O)OCc3cn(-c4ccc(Cl)cc4)nn3)CC[C@]3(C)C(=CCC4[C@@]5(C)C[C@@H](OCc6cn(-c7ccc(Cl)cc7)nn6)[C@H](O)C(C)(C)C5CC[C@]43C)C2C1 (some centres unmarked)"
  CC50 at 72 h [µM]: 514
